# SYSTEM UNDER TEST: Calmodulin-1 (Homo sapiens) (UniProt P0DP23)
# ASSAY INFO: calcium-bound CALM1 binders on microarrays, profiling panel, artefact control for SMM control-protein annotation, biochemical, small-molecule microarray, Cy5-labelled CALM1, plus calcium (AID 1112);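 note: score merges spot fluorescence with signal to noise from triplicate slides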
# MEASUREMENT CONDITIONS: Cy5-CALM1 binding fluorescence, higher = more signal
Label rule, in plain words: composite z-score of -0.2 and up is true (1), under -0.2 is false (0).

Incoming: Threshold query (composite z-score >= -0.2) on CCC(CC)C(O)C1C=CC2C(=O)N(c3ccccc3)C(=O)C2N1Nc1ccc(C(C)C)cc1 (stereo unspecified)
Outgoing: true (1)

Incoming: Tell me whether composite z-score is at least -0.2 here: `CCOC(=O)[C@H]1[C@@H]2C(=O)N3CCC[C@H]3[C@H](O[Si](C(C)C)(C(C)C)C(C)C)[C@H]2C=C2CCN(S(=O)(=O)c3ccc(C)cc3)C[C@H]21`
Outgoing: true (1)

Incoming: // inclusive: composite z-score at least -0.2? input: CN1C(=O)C2C=CC(C(O)COCc3ccccc3)N(N(c3ccccc3)c3ccccc3)C2C1=O (stereo unspecified)
Outgoing: true (1)

Incoming: Say whether `COC(=O)CCCCCCC(=O)Nc1ccc(NC(=O)CCCC[P+](c2ccccc2)(c2ccccc2)c2ccccc2)cc1` shows composite z-score of -0.2 or more.
Outgoing: false (0)

Incoming: Is it the case that `[N-]=[N+]=Nc1ccccc1[C@H]1OC(c2ccc(OCCCO)cc2)=N[C@@]1(CCS(=O)(=O)c1ccccc1)C(=O)NCCN1CCOCC1` has composite z-score reaching or exceeding -0.2?
Outgoing: false (0)

Incoming: Hi team, for `Cc1ccc(S[C@]2(C(=O)O)CC(=O)N(Cc3cc(C(F)(F)F)cc(C(F)(F)F)c3)[C@@H]2c2ccc(CO)cc2)cc1` , is the recorded composite z-score at or above -0.2?
Outgoing: true (1)

----------
# SYSTEM UNDER TEST: Left-right determination factor 2 (Homo sapiens) (UniProt O00292)
# Sequence (O00292 whole entry, looked up): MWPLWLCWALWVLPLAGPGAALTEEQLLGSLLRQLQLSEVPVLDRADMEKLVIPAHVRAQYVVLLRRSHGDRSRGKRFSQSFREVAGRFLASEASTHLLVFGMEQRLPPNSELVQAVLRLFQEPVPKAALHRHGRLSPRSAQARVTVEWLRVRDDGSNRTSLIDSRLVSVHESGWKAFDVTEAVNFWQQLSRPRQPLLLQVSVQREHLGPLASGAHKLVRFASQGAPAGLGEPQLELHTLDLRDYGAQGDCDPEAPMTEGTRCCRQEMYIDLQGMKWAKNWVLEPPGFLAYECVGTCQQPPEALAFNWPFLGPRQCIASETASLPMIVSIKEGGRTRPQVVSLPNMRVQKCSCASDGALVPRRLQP
# ASSAY INFO: LEFTY2 binders on small-molecule microarrays, primary screen, biochemical, small-molecule microarray, 635 nm fluorescence scan (AID 1110)
# MEASUREMENT CONDITIONS: LEFTY2 binding, higher = more signal
Output schema: class label derived from composite z-score. Mapping: band 1 = under -0.3, band 2 = from -0.3 up to 0.3, band 3 = 0.3 and over

Incoming: Kindly state the category for this molecule: C=C(C)C1CCC(C(O)C2C=CC3C(=O)N(C)C(=O)C3N2N2CCCCC2)CC1 (centres undefined)
Outgoing: band 3

Incoming: Please report the category associated with `CC(C)N1C(=O)C[C@@](C(=O)NCCCN(C)C)(c2ccc([N+](=O)[O-])cc2)[C@H]1c1ccc(CO)cc1` , nothing else.
Outgoing: band 1

Incoming: Which of the defined bands does the recorded composite z-score of O=C1C2C=CC(C(O)c3ccc(Br)cc3)N(Nc3ccccc3F)C2C(=O)N1c1ccccc1 (centres undefined) sit within?
Outgoing: band 2

Incoming: Looking at [N-]=[N+]=NCc1ccccc1[C@H]1OC(c2ccc(OCCCO)cc2)=N[C@@]1(CCS(=O)(=O)c1ccccc1)C(=O)NCC(O)CO (some centres undefined) , which class would you pick?
Outgoing: band 1

Incoming: Exam item: assign C=CCC(OC(C)=O)[C@@H]1[C@@H](N(Cc2cccc3ccccc23)C(=O)Cc2ccc(F)cc2)c2cc(OCCCO)ccc2N1C(=O)c1ccc2ccccc2n1 (some centres undefined) to the correct category.
Outgoing: band 2

Incoming: Class (by measured composite z-score) for `COC(=O)[C@@]1(Cc2ccccc2)[C@H]2c3cc(C(=O)N(C)C)n(CCN4CNCC4=O)c3C[C@H]2CN1C(=O)c1ccccc1`
Outgoing: band 1

Incoming: Class label required: C[C@H]1NC(=O)[C@@]23C(=O)N[C@@H](Cc4ccccc4)C2[C@H](C)[C@@]2(C)O[C@H]2C3/C=C/C/C=C\CNC(=O)[C@H](Cc2ccccc2)NC1=O (some centres undefined)
Outgoing: band 2

Incoming: Assign a category based on measured composite z-score for `O=C1O[C@@H](c2ccccc2)[C@@H](c2ccccc2)N2[C@@H](c3ccc(OCCO)cc3)[C@]3(C(=O)Nc4ccccc43)[C@@H](C(=O)O)[C@H]12` and give only the class name.
Outgoing: band 1

Incoming: Which band does `COCCOC(=O)N1C(=O)[C@@]2(c3ccccc31)[C@H](C(=O)N1CCN(c3ncccn3)CC1)[C@H]1C(=O)O[C@H](c3ccccc3)[C@H](c3ccccc3)N1[C@@H]2c1ccc(O)cc1` fall in?
Outgoing: band 2

Incoming: Which class is correct for the following molecule? `C=CC[C@]1(C(=O)NCCN2CCOCC2)N=C(c2ccc(OCCCO)cc2)O[C@H]1c1ccccc1CN=[N+]=[N-]`
Outgoing: band 3

Incoming: Could you place `CO[C@H]1O[C@H](CO)[C@@H](OC(=O)Nc2ccccc2-c2ccccc2)[C@H](OC(=O)Nc2ccc3c(c2)OCO3)[C@H]1OC(=O)Nc1ccc2c(c1)OCO2` in its proper category? Many thanks.
Outgoing: band 3

Incoming: Which category fits this record: `CCCCCCc1nc(C2CC2)cc2c1[Si](C(C)C)(C(C)C)OC2`
Outgoing: band 1

Incoming: Form: Item = `Cc1ccc(S[C@]2(C(=O)NCCCN(C)C)CC(=O)N(C3CCCCC3)[C@@H]2c2ccc(CO)cc2)cc1` ; Class = ?
Outgoing: band 1

----------
# ASSAY INFO: E. coli growth modulation, two-sided OD650, primary screen, E. coli filamentation project, strain DRC41, 24 h (AID 1093);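 note: MC1000 strain lacking acrAB efflux and sulA so SOS filamentation is blocked; test concentration not given here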
# MEASUREMENT CONDITIONS: OD650, 24 h, higher = more signal, called active from +8 up or from −8 down
Activity calls are given as the source filed them.
VALUE KIND: z-score

Incoming: Any idea what its z-score is? The compound is O=C1OCC=C[C@H]2OC34C=CCN(Cn5nnc6ccccc65)C(=O)[C@H]3N(CCCO)C(=O)[C@@H]4[C@@H]12 (stereo partly specified)
Outgoing: 1.93 (inactive)

Incoming: I would be grateful if you could share the reported z-score for `CCOC(=O)C[C@H]1[C@H](OC(=O)c2ccccc2-c2ccccc2)[C@@H](NC(=O)C2CCCCC2)c2cc(OCCCO)ccc2N1C(=O)Cc1ccc(OC)cc1` .
Outgoing: -1.05 (inactive)

Incoming: Entry under review: `C=CCN1C(=O)[C@@]2(CCS(=O)(=O)c3ccccc3)N=C(c3ccc(OCCCO)cc3)O[C@H]2c2ccccc21` . Reported z-score?
Outgoing: 0.192 (inactive)

Incoming: Given the compound `COC(=O)C(CC#Cc1ccc2c(c1)[C@]1(C(=O)N2)[C@H](C(=O)N2CCN(c3ncccn3)CC2)[C@H]2C(=O)O[C@H](c3ccccc3)[C@H](c3ccccc3)N2[C@@H]1c1ccc(OCCO)cc1)C(=O)OC` , what is its reported z-score?
Outgoing: 0.54 (inactive)

Incoming: Which z-score is reported for this compound? `CO[C@H]1O[C@H](CO)[C@@H](OC(=O)Nc2ccccc2-c2ccccc2)[C@H](OC(=O)Nc2ccc3c(c2)OCO3)[C@H]1OC(=O)Nc1ccc2c(c1)OCO2`
Outgoing: 2 (inactive)

Incoming: Report z-score for CCOc1cc(C(O)C2C=CC3C(=O)N(c4ccccc4)C(=O)C3N2Nc2ccc(C#N)cc2)ccc1O (stereo unspecified) please.
Outgoing: -0.715 (inactive)

Incoming: // lookup z-score for `CC(C)OC(=O)C=C1C[C@@H](c2ccc(C(F)(F)F)cc2)O[C@@H](c2ccc(C(F)(F)F)cc2)O1`
Outgoing: 0.374 (inactive)

Incoming: # query: z-score of entry `C=CCNC(=O)[C@@H]1[C@H]2C(=O)O[C@H](c3ccccc3)[C@H](c3ccccc3)N2[C@H](c2ccc(O)cc2)[C@@]12C(=O)N(C(=O)OCCOC)c1ccc(C#CC3(O)CCCCCC3)cc12`
Outgoing: 1.23 (inactive)

Incoming: Item under review: CN(C)c1ccc(C(O)C2C=CC3C(=O)N(c4ccccc4)C(=O)C3N2Nc2ccc([N+](=O)[O-])cc2)cc1 (stereo unspecified) . Reported z-score?
Outgoing: -0.564 (inactive)

Incoming: Name the recorded z-score for `COc1ccc([Si](C)(C)[C@H]2[C@H](CC(=O)N(CCO)Cc3ccccc3)O[C@@]3(C(=O)N(Cc4cccc(N5CCOC5=O)c4)c4ccccc43)[C@@H]2C)cc1` .
Outgoing: 1.17 (inactive)

Incoming: Suppose we examine the compound `CCCC[C@@H](O)C1=C(COc2ccccc2)C[C@H]2C(=O)N(C)C(=O)[C@H]2[C@H]1CO` ; what z-score value has been reported?
Outgoing: 1.31 (inactive)

Incoming: Which z-score value is on record for `COc1ccc([Si](C)(C)[C@@H]2[C@@H](CC(=O)N(CCO)Cc3ccccc3)O[C@]3(C(=O)N(Cc4cccc(N5CCOC5=O)c4)c4ccccc43)[C@H]2C)cc1` ?
Outgoing: 1.37 (inactive)

Incoming: Give its z-score value. Item: `COc1ccc(-c2nc(-c3ccccc3)c3c(c2C)CO[Si]3(C(C)C)C(C)C)cn1`
Outgoing: -1.5 (inactive)

Incoming: Give its z-score value. Item: `O=C(NCC(F)(F)F)[C@@H]1c2ccccc2C(=O)N(Cc2ccc(OC(F)(F)F)cc2)[C@H]1c1ccc(CO)cc1`
Outgoing: 0.583 (inactive)

Incoming: // query z-score value for entry `NC(=O)NCC#Cc1ccc2c(c1)[C@]1(C(=O)N2)[C@H](C(=O)O)[C@H]2C(=O)O[C@H](c3ccccc3)[C@H](c3ccccc3)N2[C@@H]1c1ccc(OCCO)cc1`
Outgoing: 0.8 (inactive)

Incoming: Name the reported z-score value associated with the compound `COCCOC(=O)N1C(=O)[C@@]2(c3cc(C#CC4=CCCCC4)ccc31)[C@H](c1ccc(OCCO)cc1)N1[C@H](c3ccccc3)[C@H](c3ccccc3)OC(=O)[C@H]1[C@@H]2C(=O)N1CCN(c2ncccn2)CC1`
Outgoing: 1.37 (inactive)

Incoming: What value of measured z-score is listed for CC1CC/C=C\[C@H]2OC34C=CCN(c5ccc(Cl)cc5)C(=O)[C@H]3N(CCCCCO)C(=O)[C@]4(C)C2C(=O)O1 (stereo partly specified) ?
Outgoing: -0.367 (inactive)

Incoming: Endpoint output: z-score of `CO[C@]12C=C(Br)[C@@H](C[C@@H]1c1cccc(C)c1)[C@@]1(CO1)C2=O` . Value?
Outgoing: -0.0461 (inactive)

Incoming: I am curious: what z-score value has been reported for `COc1ccc([Si](C)(C)[C@H]2[C@H](CCO)O[C@@]3(C(=O)N(Cc4cccc(N5C(=O)COc6ccccc65)c4)c4ccccc43)[C@@H]2C)cc1` ?
Outgoing: 1.98 (inactive)

Incoming: Given the entry `COC(=O)[C@@]1(Cc2ccccc2)[C@H]2c3cc(C(=O)N(C)C)n(CCN4CNCC4=O)c3C[C@H]2CN1C(=O)c1ccccc1` , report its measured z-score.
Outgoing: -0.0469 (inactive)

Incoming: What measured z-score goes with `C=C(/C(=C/C[C@@H](OC(C)=O)c1cccc(OCCO)c1)c1cc(C(=O)OC)ccc1OC)C(C)C` ?
Outgoing: 0.251 (inactive)
